Test system: ATP;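 note: ATP exposure 15 min at 22 °C before imaging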
Experiment: switch fluorescence ratio, 500 uM ATP over buffer (Cy3 cluster intensity, sum of 5 cycles each) (fold (ratio)); higher = stronger signal-on switching upon ATP binding; sequences stand for … in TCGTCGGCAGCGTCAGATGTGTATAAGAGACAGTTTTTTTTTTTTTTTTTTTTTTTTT…TC
Conditions: aptamer strand: ATP DNA aptamer (quencher-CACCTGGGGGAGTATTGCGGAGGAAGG + anchor), 100 nM annealed; ATP concentration: 500 uM
Task for the reader: assign each of the following sequences its reported switch fluorescence ratio.
// keep it numeric: no unit symbol after the value

Exercise: Supply recorded switch fluorescence ratio for AGTTGGCTTG here.
Key: 1.03

Exercise: Supply recorded switch fluorescence ratio for AGGGGCAGGG here.
Key: 0.932

Exercise: Supply recorded switch fluorescence ratio for CGGGGGCGCG here.
Key: 1.02

Exercise: Supply recorded switch fluorescence ratio for AACATGAGGA here.
Key: 1

Exercise: Supply recorded switch fluorescence ratio for TATATATGAC here.
Key: 1.01

Exercise: Supply recorded switch fluorescence ratio for TACGGGGACT here.
Key: 1.11

Exercise: Supply recorded switch fluorescence ratio for TTTCGGAGTT here.
Key: 1.05

Exercise: Supply recorded switch fluorescence ratio for AGGAGGTATG here.
Key: 0.976

Exercise: Supply recorded switch fluorescence ratio for GGGGCTTTAA here.
Key: 1.18

Exercise: Supply recorded switch fluorescence ratio for TTAGTATCGA here.
Key: 0.966

Exercise: Supply recorded switch fluorescence ratio for TGGCGAATTA here.
Key: 0.978

Exercise: Supply recorded switch fluorescence ratio for AGTGTTGTCA here.
Key: 0.97

Exercise: Supply recorded switch fluorescence ratio for TAGTACCGGT here.
Key: 0.991

Exercise: Supply recorded switch fluorescence ratio for TAAAATTATG here.
Key: 0.974

Exercise: Supply recorded switch fluorescence ratio for TCGCTTGGCC here.
Key: 1.03

Exercise: Supply recorded switch fluorescence ratio for GTAGGACGTC here.
Key: 1.02

Exercise: Supply recorded switch fluorescence ratio for TTTAGGGGTT here.
Key: 1.02

Exercise: Supply recorded switch fluorescence ratio for GTGGCAGGCA here.
Key: 0.984

Exercise: Supply recorded switch fluorescence ratio for TTTGTGTTG here.
Key: 0.977

Exercise: Supply recorded switch fluorescence ratio for TACCGGGGGG here.
Key: 1.03

Exercise: Supply recorded switch fluorescence ratio for TTAAGTTGTT here.
Key: 0.965

Exercise: Supply recorded switch fluorescence ratio for ATATGATATC here.
Key: 1.03

Exercise: Supply recorded switch fluorescence ratio for ATTCCCGGTT here.
Key: 1.03

Exercise: Supply recorded switch fluorescence ratio for TCTTGGGGAG here.
Key: 0.982

Exercise: Supply recorded switch fluorescence ratio for TTCAATGTTT here.
Key: 0.978

Exercise: Supply recorded switch fluorescence ratio for TTAATGTGCG here.
Key: 1.01

Exercise: Supply recorded switch fluorescence ratio for TTATCCACGA here.
Key: 1.03

Exercise: Supply recorded switch fluorescence ratio for TGTTGAGTTT here.
Key: 0.994

Exercise: Supply recorded switch fluorescence ratio for TCATGGGCGC here.
Key: 1.01

Exercise: Supply recorded switch fluorescence ratio for GGGATGAACT here.
Key: 1.01

Exercise: Supply recorded switch fluorescence ratio for TACGAGGGTC here.
Key: 0.969

Exercise: Supply recorded switch fluorescence ratio for CCTTTTGGGT here.
Key: 1.01

Exercise: Supply recorded switch fluorescence ratio for CAGGACTGGG here.
Key: 1.01

Exercise: Supply recorded switch fluorescence ratio for TGTTTTAGT here.
Key: 0.992

Exercise: Supply recorded switch fluorescence ratio for GGACCCTAAC here.
Key: 1.08

Exercise: Supply recorded switch fluorescence ratio for CTGAGGGAGA here.
Key: 1.04

Exercise: Supply recorded switch fluorescence ratio for TCGATAGGGG here.
Key: 0.98

Exercise: Supply recorded switch fluorescence ratio for AGCGGGGGGG here.
Key: 1.02

Exercise: Supply recorded switch fluorescence ratio for CGCTATTTTT here.
Key: 1.02

Exercise: Supply recorded switch fluorescence ratio for GTTTTGTTTG here.
Key: 0.955

Exercise: Supply recorded switch fluorescence ratio for TGTCGGCGGT here.
Key: 1.05

Exercise: Supply recorded switch fluorescence ratio for AAAACTTCTT here.
Key: 1

Exercise: Supply recorded switch fluorescence ratio for TTTTTCTTCG here.
Key: 1.21
